Please go through the items and note down their ST/CB ratio, 60 min.
- SYSTEM: UniProt:P23977
- Sequence (P23977 whole entry): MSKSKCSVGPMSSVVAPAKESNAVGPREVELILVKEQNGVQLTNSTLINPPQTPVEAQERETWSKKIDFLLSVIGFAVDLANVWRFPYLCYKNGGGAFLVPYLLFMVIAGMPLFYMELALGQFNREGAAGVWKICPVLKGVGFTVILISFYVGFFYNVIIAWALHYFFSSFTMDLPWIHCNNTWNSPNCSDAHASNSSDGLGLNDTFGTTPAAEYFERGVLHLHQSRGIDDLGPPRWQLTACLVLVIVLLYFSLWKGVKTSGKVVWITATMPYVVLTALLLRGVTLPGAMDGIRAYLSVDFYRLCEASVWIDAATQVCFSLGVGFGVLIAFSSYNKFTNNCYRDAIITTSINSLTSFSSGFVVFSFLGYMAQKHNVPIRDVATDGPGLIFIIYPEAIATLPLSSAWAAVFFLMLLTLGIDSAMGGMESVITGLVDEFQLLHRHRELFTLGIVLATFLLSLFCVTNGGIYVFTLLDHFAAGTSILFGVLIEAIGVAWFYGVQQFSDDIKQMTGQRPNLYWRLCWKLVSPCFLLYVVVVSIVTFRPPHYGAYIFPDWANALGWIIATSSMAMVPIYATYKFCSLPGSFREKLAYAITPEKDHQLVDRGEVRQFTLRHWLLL
- Type: in vivo, Male Sprague-Dawley rats
- TEST_SETTINGS: rats, iv, 60 min
Give a plain numeric answer without units written out.

What does the data say about its ST/CB ratio, 60 min? Entry: CN1[C@H]2CC[C@@H]1[C@@H](C[N+]13CC[S][99Tc-]14(=[O])[S]CC[N]4CC3)[C@@H](c1ccc(Cl)cc1)C2 (single isomer, unassigned; peak a) [Peak A (1.19a)]
2.72

Queued: COC(=O)C1C(c2ccc(Cl)cc2)CC2CCC1N2CC[S][99Tc-]12(=[O])[S]CC[N+]1(C)CC[S]2 (stereo not shown)
3.5

Now consider CN1[C@H]2CC[C@@H]1[C@@H](C[N+]13CC[S][99Tc-]14(=[O])[S]CC[N]4C(=O)C3)[C@@H](c1ccc(Cl)cc1)C2 (stereo partly shown) and answer again.
1.17

Another compound to look at: CN1[C@H]2CC[C@@H]1[C@@H](C[N+]13CC[S][99Tc-]14(=[O])[S]CC[N]4CC3)[C@@H](c1ccc(Cl)cc1)C2 (single isomer, unassigned; peak b) [peak B (1.19a)]
3.79

// provenance: patent US6241963A
